Source of measurements: ChEMBL document CHEMBL1130874

Test: Ability to inhibit proliferation in a mixture of human lymphocytes from two unrelated donors in MLR (human mixed lymphocyte reaction)
Format: functional, cell-based
OUTCOME_MEASURE: IC50 (nM)
Form entry: value (nM) — number only.

IN: Recorded IC50 for Cc1c(Nc2cccc(-c3ccccc3)c2)nc2ccc(F)cc2c1C(=O)O , please?
OUT: 340

IN: Recorded IC50 for Cc1ccccc1-c1cccc2c1CCN2c1nc2ccc(F)cc2c(C(=O)O)c1C , please?
OUT: 1.6

IN: Recorded IC50 for Cc1c(-n2ccc3c(-c4ccccc4)cccc32)nc2ccc(F)cc2c1C(=O)O , please?
OUT: 380

IN: Recorded IC50 for COc1ccccc1-c1cccc2c(-c3nc4ccc(F)cc4c(C(=O)O)c3C)cn(C)c12 , please?
OUT: 650

IN: Recorded IC50 for COc1cccc(-c2cccc3c2CCN3c2nc3ccc(F)cc3c(C(=O)O)c2C)c1 , please?
OUT: 4

IN: Recorded IC50 for Cc1c(N2CCc3c(-c4ccccc4F)cccc32)nc2ccc(F)cc2c1C(=O)O , please?
OUT: 2.8

IN: Recorded IC50 for Cc1c(N2CCc3c(-c4ccccc4)cccc32)nc2ccc(F)cc2c1C(=O)O , please?
OUT: 26

IN: Recorded IC50 for Cc1c(N2CCc3c(-c4cccc(C(F)(F)F)c4)cccc32)nc2ccc(F)cc2c1C(=O)O , please?
OUT: 0.41

IN: Recorded IC50 for Cc1c(-c2ccc(-c3ccccc3F)cc2)nc2ccc(F)cc2c1C(=O)O [BREQUINAR SODIUM] , please?
OUT: 15

IN: Recorded IC50 for COc1cccc(-c2cccc3c(-c4nc5ccc(F)cc5c(C(=O)O)c4C)cn(C)c23)c1 , please?
OUT: 190

IN: Recorded IC50 for COc1ccccc1-c1cccc2c1CCN2c1nc2ccc(F)cc2c(C(=O)O)c1C , please?
OUT: 4.1

IN: Recorded IC50 for Cc1c(-n2cnc3c(-c4ccccc4)cccc32)nc2ccc(F)cc2c1C(=O)O , please?
OUT: 4700

IN: Recorded IC50 for Cc1c(Oc2cccc(-c3ccccc3)c2)nc2ccc(F)cc2c1C(=O)O , please?
OUT: 210

IN: Recorded IC50 for Cc1c(-c2cccc3c(-c4ccccc4)cccc23)nc2ccc(F)cc2c1C(=O)O , please?
OUT: 150

IN: Recorded IC50 for Cc1c(-c2cn(C)c3c(-c4ccccc4)cccc23)nc2ccc(F)cc2c1C(=O)O , please?
OUT: 140

IN: Recorded IC50 for Cc1c(-c2cn(C)c3c(-c4cccc(C(F)(F)F)c4)cccc23)nc2ccc(F)cc2c1C(=O)O , please?
OUT: 7

====

Molecular target: Dihydroorotate dehydrogenase (quinone), mitochondrial (Homo sapiens, UniProt Q02127)
Sequence (Q02127 whole entry): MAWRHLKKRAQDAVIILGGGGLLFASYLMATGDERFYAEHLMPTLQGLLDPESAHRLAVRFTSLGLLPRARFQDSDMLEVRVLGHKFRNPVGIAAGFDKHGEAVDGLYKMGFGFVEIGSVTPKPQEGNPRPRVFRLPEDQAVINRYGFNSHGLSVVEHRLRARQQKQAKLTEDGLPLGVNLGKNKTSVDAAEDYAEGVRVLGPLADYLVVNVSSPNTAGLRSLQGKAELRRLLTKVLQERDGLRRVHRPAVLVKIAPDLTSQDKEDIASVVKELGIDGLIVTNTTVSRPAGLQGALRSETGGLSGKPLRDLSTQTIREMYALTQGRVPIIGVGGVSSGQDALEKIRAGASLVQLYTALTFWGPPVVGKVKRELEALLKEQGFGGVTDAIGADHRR
Assay: Immunosuppressive effect in an isolated enzyme assay using partially purified Dihydroorotate dehydrogenase from human liver for inhibition of the formation of orotate from radiolabeled dihydroorotate
OUTCOME_MEASURE: pKi
The read-out pKi is expressed as -log10 of concentration in moles per litre.

IN: Recorded pKi for Cc1c(N2CCc3c(-c4ccccc4)cccc32)nc2ccc(F)cc2c1C(=O)O , please?
OUT: 7.82

IN: Recorded pKi for Cc1c(N(C)c2cccc(-c3ccccc3)c2)nc2ccc(F)cc2c1C(=O)O , please?
OUT: 6.62

IN: Recorded pKi for Cc1c(Oc2cccc(-c3ccccc3)c2)nc2ccc(F)cc2c1C(=O)O , please?
OUT: 7.68

IN: Recorded pKi for Cc1c(-c2cccc3c(-c4ccccc4)cccc23)nc2ccc(F)cc2c1C(=O)O , please?
OUT: 7.59

====

Test: Ability to inhibit proliferation in a mixture of human lymphocytes from two unrelated donors in MLR (human mixed lymphocyte reaction)
Format: functional, cell-based
Please go through the items and note down their pIC50.
The read-out pIC50 is expressed as -log10 of concentration in moles per litre.

IN: Recorded pIC50 for COc1cc(-c2ccccc2)c2c(c1)N(c1nc3ccc(F)cc3c(C(=O)O)c1C)CC2 , please?
OUT: 7.46

IN: Recorded pIC50 for Cc1c(N2CCc3c(-c4ccccc4)cc(F)cc32)nc2ccc(F)cc2c1C(=O)O , please?
OUT: 7.39

IN: Recorded pIC50 for Cc1c(-c2c[nH]c3c(-c4ccccc4)cccc23)nc2ccc(F)cc2c1C(=O)O , please?
OUT: 5.80

====

Please go through the items and note down their pKi.
Molecular target: Dihydroorotate dehydrogenase (quinone), mitochondrial (Homo sapiens, UniProt Q02127)
Assay: Immunosuppressive effect in an isolated enzyme assay using partially purified Dihydroorotate dehydrogenase from human liver for inhibition of the formation of orotate from radiolabeled dihydroorotate
pKi: −log10 of the molar value.

IN: Recorded pKi for Cc1c(-c2c[nH]c3c(-c4ccccc4)cccc23)nc2ccc(F)cc2c1C(=O)O , please?
OUT: < 6.89

IN: Recorded pKi for Cc1c(Oc2ccc(-c3ccccc3)cc2)nc2ccc(F)cc2c1C(=O)O , please?
OUT: < 6.00

IN: Recorded pKi for CC(=O)N(c1cccc(-c2ccccc2)c1)c1nc2ccc(F)cc2c(C(=O)O)c1C , please?
OUT: < 6.41

IN: Recorded pKi for Cc1c(Nc2ccc(-c3ccccc3)cc2)nc2ccc(F)cc2c1C(=O)O , please?
OUT: < 6.37

IN: Recorded pKi for Cc1c(Nc2ccccc2)nc2ccc(F)cc2c1C(=O)O , please?
OUT: < 6.70
